Data origin, for the record: PubChem BioAssay (NCI)

What TGI was measured for each of the following?
- System: NCI/ADR-RES ovarian
- Experiment Description: NCI tumour cell line growth inhibition, 48 h
Answers are plain numbers, in µM.

Study these solved cases before continuing.
• COc1ccc2c(c1)c(-c1nc(-c3c[nH]c4ncccc34)cs1)cn2CCCN1CCCCC1 = 3.44
• O=C1/C(=C/c2ccccc2)CN(C(=O)C(Cl)Cl)C/C1=C\c1ccccc1 = 4.92
• S=C1NC2=C(COc3ccccc32)C(c2ccc(Cl)cc2)N1 (centres undefined) = 41.3
• CN(C)c1ccc(/C=C/c2ccc(S(N)(=O)=O)cc2)cc1 = 40
• CN(C)CCCN(CCC1CCCCC1)CCC1CCCCC1 = 7

# batch size: 5; output TGI per entry
1. C=C1CC2(CC(c3ccccc3Cl)OC(c3ccccc3Cl)C2)OC1=O (centres undefined)
2. COc1ccc(/C=C2\CN(C(=O)C(Cl)Cl)C/C(=C\c3ccc(OC)cc3)C2=O)cc1
3. COCCN(CCNC(=O)c1cccc2c(N)c3cccc(C)c3nc12)CCOC
4. S=C(N/N=C(\c1ccccc1)c1ccccn1)NC1CCCCC1
5. CCCc1cn2c(/C=N/N=C(N)N)c(-c3cccc([N+](=O)[O-])c3)nc2s1

[8.55, 15.1, 33.7, 1.59, 10.5]

====

- System: SK-OV-3 ovarian
- Experiment Description: NCI tumour cell line growth inhibition, 48 h
Metric: GI50

Study these solved cases before continuing.
* CC1=CC(C)=NN=C(N)N1S(=O)(=O)c1cc(C)c(Cl)cc1SCc1ccccc1 | 77.7 µM
* Nc1c(C(=O)Nc2ccccc2)sc2nc3c(cc12)CCCCC3 | 0.633 µM

Next molecule, please.
So, "O=C(Nc1ccc(Cc2ccccc2)cc1)Nc1nn(C(=O)Nc2ccc(Cc3ccccc3)cc2)c2ccccc12" ? Its GI50 was > 100 µM

====

- System: UO-31 renal
- Experiment Description: NCI tumour cell line growth inhibition, 48 h
Metric: TGI

Study these solved cases before continuing.
* COc1cc2c(c(OC)c1OC)-c1ccc(SC)c(=O)cc1C(CC(=O)Oc1cccc([N+](=O)[O-])c1)C2 (centres undefined) | > 100 µM
* Cc1c2ccn(O)cc2c(C)c2c1nc1ccccc12 | 27.5 µM
* Oc1ccc(Nc2ccc3ccccc3c2)cc1 | 9.49 µM
* COc1cc(-c2nc3ccc(N4CCN(C)CC4)cc3[nH]2)c(OC)c2[nH]c(COC(C)=O)nc12 | > 100 µM

# batch size: 8; output TGI per entry
1. O=C(CC1(O)C(=O)N(Cc2ccccc2)c2ccc(Cl)cc21)c1ccc(C(=O)NCC2CCC3(CC2)OOC2(CCCCC2)OO3)cc1 (centres undefined)
2. S=C(N/N=C(\c1ccccc1)c1ccccn1)NC1CCCCC1
3. COC(=O)C1CCC(=O)N1C(c1cc(OC)c(OC)c(OC)c1)c1cc(OC)c(OC)c(OC)c1 (centres undefined)
4. CO[C@@H]1C=C[C@@]23c4cc5c(cc4CN(C[C@@H]2O)[C@H]3C1)OCO5
5. CCCCCCCCCCCC(=O)OC[C@H](C[As](=O)(O)O)OC(=O)CCCCCCCCCCC
6. CC(O)C1(CNc2cc(Cl)nc(N)n2)CCCCC1 (centres undefined)
7. NCCSc1cc(O)c2c(c1N)C(=O)c1ccccc1C2=O
8. Nc1c(C(=O)Nc2ccccc2)sc2nc3c(cc12)CCCCC3

1: 0.289 µM; 2: > 100 µM; 3: > 100 µM; 4: 62.2 µM; 5: 29.5 µM; 6: > 100 µM; 7: > 100 µM; 8: > 100 µM

# batch size: 4; output TGI per entry
1. CC(CC(=O)N1C(=O)C(C)(C)[C@@H](O)[C@H]1CC(C)C(Cl)(Cl)Cl)C(Cl)(Cl)Cl (some centres undefined)
2. COc1ccc2c(c1)c(-c1nc(-c3c[nH]c4ncccc34)cs1)cn2CCCN1CCCCC1
3. CCOC(=O)C(=O)C=P(c1ccccc1)(c1ccccc1)c1ccccc1
4. CC(Oc1ccccc1Cl)C(=O)NN1C(=O)CC(=O)N(c2ccccc2)C1=S (centres undefined)

["> 100 µM", "2.83 µM", "> 100 µM", "> 100 µM"]
